# tested.system: Human Prostanoid EP4 Receptor (Homo sapiens (Human))
# Sequence (P35408 whole entry): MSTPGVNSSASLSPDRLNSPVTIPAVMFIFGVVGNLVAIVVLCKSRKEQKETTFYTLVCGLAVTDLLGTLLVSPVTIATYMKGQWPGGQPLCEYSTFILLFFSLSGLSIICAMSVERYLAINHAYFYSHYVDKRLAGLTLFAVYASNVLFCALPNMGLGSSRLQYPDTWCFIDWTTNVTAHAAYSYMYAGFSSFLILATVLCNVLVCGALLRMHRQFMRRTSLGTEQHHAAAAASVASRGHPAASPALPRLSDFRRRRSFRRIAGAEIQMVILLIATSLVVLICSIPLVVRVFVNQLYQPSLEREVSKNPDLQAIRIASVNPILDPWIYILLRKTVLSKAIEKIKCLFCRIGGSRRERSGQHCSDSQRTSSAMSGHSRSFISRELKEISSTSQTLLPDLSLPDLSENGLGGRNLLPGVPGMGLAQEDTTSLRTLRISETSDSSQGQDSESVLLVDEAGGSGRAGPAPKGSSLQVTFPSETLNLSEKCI
# test.summary: Radioligand binding assay, agonist site of human prostanoid EP4 receptor in transfected HEK-293 cells
# run.parameters: human EP4 receptor binding; read-out: hEP4 receptor binding IC50
experimental.endpoint: pIC50
API: returns pIC50 as number; meaning -log10 of concentration in mol/L.

INPUT: Look at this compound and give its reported pIC50. C[C@@H](CCCc1ccccc1)[C@H](O)/C=C/[C@H]1CC(F)(F)C(=O)N1CCCc1ccc(C(=O)O)s1 [Example 28C]
OUTPUT: 9.13

INPUT: Look at this compound and give its reported pIC50. CCCCC[C@H](O)/C=C/[C@H]1CC(F)(F)C(=O)N1CCCc1ccc(C(=O)O)s1 [Example 33C]
OUTPUT: 9.55
